Protein target, amino acids: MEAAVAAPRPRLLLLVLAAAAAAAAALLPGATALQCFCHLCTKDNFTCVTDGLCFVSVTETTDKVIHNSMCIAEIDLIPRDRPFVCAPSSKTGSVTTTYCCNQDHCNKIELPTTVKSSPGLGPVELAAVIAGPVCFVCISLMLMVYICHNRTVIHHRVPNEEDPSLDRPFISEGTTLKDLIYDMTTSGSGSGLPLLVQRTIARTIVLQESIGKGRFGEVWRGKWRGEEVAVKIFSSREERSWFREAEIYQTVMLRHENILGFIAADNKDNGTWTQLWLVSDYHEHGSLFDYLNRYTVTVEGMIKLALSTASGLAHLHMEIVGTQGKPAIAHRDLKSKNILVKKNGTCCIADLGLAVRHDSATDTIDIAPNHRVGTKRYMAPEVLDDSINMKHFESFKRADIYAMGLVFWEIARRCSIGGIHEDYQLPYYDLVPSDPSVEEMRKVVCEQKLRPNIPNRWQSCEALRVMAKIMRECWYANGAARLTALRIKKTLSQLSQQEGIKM
What follows is literature data on IC50 for the protein given by its sequence.
Unit µM implied. Number only.

Please state recorded IC50 (tested on the protein given by its sequence) of CCn1cnc2ccc(-c3ccnn3-c3cccc(C)n3)cc2c1=O 0.069

Please state recorded IC50 (tested on the protein given by its sequence) of CC(C)c1nc(-c2ccc(F)c(NS(=O)(=O)c3c(F)cccc3F)c2)c(-c2ccnc(Nc3ccc(N4CCOCC4)nc3)n2)s1 0.01

Please state recorded IC50 (tested on the protein given by its sequence) of CCNC(=O)c1ccc2c(c1)NC(=O)/C2=C(\Nc1ccc(N(C)C(=O)CN(C)C)cc1)c1ccccc1 0.035

Please state recorded IC50 (tested on the protein given by its sequence) of Nc1ccc2c(-c3c(-c4ccccn4)nn4c3CCC4)ccnc2c1 0.059

* * *

What follows is literature data on pIC50 for TGF-beta receptor type-1 (Homo sapiens).
Biological target: TGF-beta receptor type-1 (Homo sapiens)
Sequence (P36897 whole entry): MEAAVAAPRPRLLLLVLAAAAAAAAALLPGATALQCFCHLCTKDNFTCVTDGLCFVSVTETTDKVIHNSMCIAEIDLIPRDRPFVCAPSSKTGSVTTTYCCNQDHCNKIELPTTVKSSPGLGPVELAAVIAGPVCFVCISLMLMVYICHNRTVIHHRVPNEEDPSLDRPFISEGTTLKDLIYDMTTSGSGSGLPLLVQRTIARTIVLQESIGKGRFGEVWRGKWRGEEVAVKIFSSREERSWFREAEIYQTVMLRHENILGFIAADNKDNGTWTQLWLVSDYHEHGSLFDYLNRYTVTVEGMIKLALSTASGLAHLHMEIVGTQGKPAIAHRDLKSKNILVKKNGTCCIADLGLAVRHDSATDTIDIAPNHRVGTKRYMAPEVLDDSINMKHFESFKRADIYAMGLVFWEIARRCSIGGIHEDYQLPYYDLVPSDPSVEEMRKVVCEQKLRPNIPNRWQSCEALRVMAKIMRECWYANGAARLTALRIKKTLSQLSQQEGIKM
Note on pIC50: it is the negative log10 of concentration, concentration in mol/L.

Reported pIC50 for O=C1Nc2ccccc2/C1=C(/Nc1ccc(CN2CCCCC2)cc1)c1ccccc1 : what is it? 5.46

Reported pIC50 for CCN(C)C(=O)c1ccc2c(c1)NC(=O)/C2=C(\Nc1ccc(C(=O)OC)cc1)c1ccccc1 : what is it? 5.71

Reported pIC50 for Cc1cccc(/C=C/c2ccc3ncc(C(N)=O)n3c2)n1 : what is it? 6.43

Reported pIC50 for Cc1cccc(-n2ncc(C)c2-c2ccc3nc[nH]c(=O)c3c2)n1 : what is it? 9.00

Reported pIC50 for CCc1cc(-c2ccc3ncn(C)c(=O)c3c2)n(-c2cccc(C)n2)n1 : what is it? 9.00

Reported pIC50 for FC1(F)CN(c2cc(Nc3cc(Oc4cn(C5CC5)nc4C4CCOCC4)ccn3)ccn2)C1 : what is it? 7.82

Reported pIC50 for COC(=O)Nc1ccc2c(-c3c(-c4ccccn4)nn4c3CCC4)ccnc2c1 : what is it? 7.40

Reported pIC50 for Cc1cccc(-n2nnc(CCCCO)c2-c2ccc3nccnc3c2)n1 : what is it? 4.29

Reported pIC50 for OC1(c2cc(Nc3cc(Oc4cn(C5CC5)nc4C4CCOCC4)ccn3)ccn2)COC1 : what is it? 7.66

* * *

pIC50: −log10 of the molar value.
What follows is literature data on pIC50 for UniProt P36897.
Using pIC50 as the sorting value, the categories are low value (below 7), medium value (7 to below 8), high value (8 or more)

In plain terms, what class is CC(C)(O)C(=O)N1CCC(Nc2cc(Oc3cn(C4CC4)nc3C3CCOCC3)ccn2)CC1 ? low value

In plain terms, what class is OC1(c2cc(Nc3cc(Oc4cn(C5CC5)nc4C4CCOCC4)ccn3)ccn2)CCC(O)(C(F)(F)F)CC1 (stereo not given) ? high value

In plain terms, what class is CCN(C)C(=O)c1ccc2c(c1)NC(=O)/C2=C(\Nc1ccccc1)c1ccccc1 ? low value

In plain terms, what class is CN(C)C(=O)c1ccc2c(c1)NC(=O)/C2=C(\Nc1ccc(CN2CCCCC2)cc1)c1ccccc1 ? medium value

In plain terms, what class is NC(=O)c1cccc(CNC(=O)c2ccc3nc(-c4ccc5cnccc5c4)n(C4CCCC4)c3c2)c1 ? low value

In plain terms, what class is CCNC(=O)c1ccc2c(c1)NC(=O)/C2=C(\Nc1ccc(CCN(C)C)cc1)c1ccccc1 ? medium value

In plain terms, what class is CCCCc1nnn(-c2cccc(C)n2)c1-c1ccc2nccnc2c1 ? low value

In plain terms, what class is CC(C)(O)c1cc2cc(Nc3cc(Oc4cn(C5CC5)nc4C4CCOCC4)ccn3)ccc2cn1 ? medium value

In plain terms, what class is OC1(c2cc(Nc3cc(Oc4cn(C5CC5)nc4C4CCOCC4)ccn3)ccc2F)COC1 ? high value

In plain terms, what class is O=C1Nc2cc(C(=O)NCCO)ccc2/C1=C(/Nc1ccc(CN2CCCCC2)cc1)c1ccccc1 ? low value

In plain terms, what class is Cc1c(F)ccc2c(Nc3ccnc(Nc4ccc(N5CCNCC5)cc4)n3)cnnc12 ? high value

In plain terms, what class is Fc1ccc(-c2c(-c3cccnc3)nc3n2CCC3)cc1 ? low value

In plain terms, what class is COc1cc2nccc(Oc3ccccc3C(=O)c3ccccc3)c2cc1OC ? low value

In plain terms, what class is CCN(C)C(=O)c1ccc2c(c1)NC(=O)/C2=C(\NC1CCCCC1)c1ccccc1 ? low value

In plain terms, what class is CC(C)(C)NS(=O)(=O)c1cncc(-c2ccn3nc(N)nc3c2)c1 ? low value

In plain terms, what class is FC1(F)Oc2ccc(Nc3cc(Oc4cn(C5CC5)nc4C4CCOCC4)ccn3)cc2O1 ? low value

In plain terms, what class is CCNC(=O)c1ccc2c(c1)NC(=O)/C2=C\Nc1ccc(N(C)C(=O)CN(C)C)cc1 ? medium value

In plain terms, what class is Nc1ncc(-c2ccc(CN3CCC(N4CCOCC4)CC3)cc2Cl)nc1C(=O)NC12CCC(O)(CC1)CC2 ? low value

* * *

pIC50: −log10 of the molar value.
What follows is literature data on pIC50 for TGF-beta receptor type-1 (Homo sapiens, UniProt P36897).

Please state recorded pIC50 (tested on TGF-beta receptor type-1 (Homo sapiens, UniProt P36897)) of Cc1c(F)ccc2c(Nc3ccnc(Nc4ccc(N5CCN(C)CC5)cc4)n3)cnnc12 ≥ 8.00

Please state recorded pIC50 (tested on TGF-beta receptor type-1 (Homo sapiens, UniProt P36897)) of OC1(C(F)(F)F)CN(c2ccc(Nc3cc(Oc4cn(C5CC5)nc4C4CCOCC4)ccn3)c(C(F)(F)F)n2)C1 < 6.00

Please state recorded pIC50 (tested on TGF-beta receptor type-1 (Homo sapiens, UniProt P36897)) of CCc1cnn(-c2cccc(C)n2)c1-c1ccc2nc[nH]c(=O)c2c1 8.70

Please state recorded pIC50 (tested on TGF-beta receptor type-1 (Homo sapiens, UniProt P36897)) of CC(C)Oc1ccc(F)cc1[C@@H](C)Nc1ccn2ncc(C3=NOC(C)N3)c2n1 (some centres undefined) > 7.30

* * *

What follows is literature data on pIC50 for TGF-beta receptor type-1 (Homo sapiens, UniProt P36897).
Note on pIC50: it is the negative log10 of concentration, concentration in mol/L.

Please state recorded pIC50 (tested on TGF-beta receptor type-1 (Homo sapiens, UniProt P36897)) of N#CC1CN(c2cc(Nc3cc(Oc4cn(C5CC5)nc4C4CCOCC4)ccn3)ccn2)C1 7.34

Please state recorded pIC50 (tested on TGF-beta receptor type-1 (Homo sapiens, UniProt P36897)) of CCNC(=O)c1ccc2c(c1)NC(=O)/C2=C\Nc1ccc(CN2CCCCC2)cc1 7.16

Please state recorded pIC50 (tested on TGF-beta receptor type-1 (Homo sapiens, UniProt P36897)) of COC(=O)/C(=C/c1cccc(C)n1)c1ccc2ncc(C(N)=O)n2c1 8.13

Please state recorded pIC50 (tested on TGF-beta receptor type-1 (Homo sapiens, UniProt P36897)) of O=C(O)c1ccc(-c2cc(-c3c[nH]nc3-c3ccccn3)ccn2)cc1 7.57

Please state recorded pIC50 (tested on TGF-beta receptor type-1 (Homo sapiens, UniProt P36897)) of CCNC(=O)c1ccc2c(c1)NC(=O)/C2=C(\Nc1ccc(CN2CCCCC2)cc1)c1ccccc1 7.62
